# Tested on: HOP-62
# experiment-notes: NCI tumour cell line growth inhibition, 48 h
Active and inactive are the calls of the source. Rule as the data show it: active = GI50 up to about 1.1 µM and inactive = higher.
Would you mind answering with one of these outcomes? active, inactive

Previously resolved entries follow.
{"columns": ["molecule", "label-class"],
 "data": [
  ["Oc1cc2c(cc1O)-c1[nH]ncc1CC2", "inactive"],
  ["CN(C)c1ccc(/C=C/C=c2/c3ccccc3n3c2cc(-c2ccccc2)[n+]3C)cc1", "active"],
  ["CC12CC3(C)CC(C)(C1)CC(N=[N+]=[N-])(C2)C3", "inactive"],
  ["Cc1ccc(N2C(=O)C3C=CC(n4[nH]c(=O)n(Cc5ccccc5)c4=O)CC3C2=O)cc1 (stereo unspecified)", "inactive"],
  ["COc1cc2ncnc(Nc3cccc(Br)c3)c2cc1OC", "inactive"]
]}

API: the following record is the query input.
Request: Assay result, entry "COC(=O)CCN(CCC(=O)OC)C1CC1" — outcome?
Result: inactive

====

# Test system: UACC-257
# experiment-notes: NCI tumour cell line growth inhibition, 48 h
Active and inactive are the calls of the source. Rule as the data show it: active = GI50 up to about 1.1 µM and inactive = higher.
assay-readout: GI50

These solved cases illustrate the format of a correct answer.
{"columns": ["molecule", "meas-value"],
 "data": [
  ["CC1OC(CC2C=CCc3c(O)c4c(c(O)c32)C(=O)c2ccccc2C4=O)CC(NC(=O)C(F)(F)F)C1O (stereo not given)", "7.93 µM (inactive)"],
  ["CC(CO)CCC(O)C(C)(O)C1CCC2(O)C3=CC(=O)C4CC(O)C(O)CC4(C)C3CCC12C (stereo not given)", "> 100 µM (inactive)"],
  ["Cc1ccccc1Nc1cn(COCc2ccccc2)c(=O)[nH]c1=O", "> 100 µM (inactive)"],
  ["COc1cc(C2c3cc4c(c(O)c3C(=O)C3CCC(=O)N32)OCO4)cc(OC)c1OC (stereo not given)", "> 100 µM (inactive)"]
]}

Turning to the following molecule.
Request: What does the data say about its GI50? Entry: "CCCOc1ccc(/C=C\c2cc(OC)c(OC)c(OC)c2)cc1"
Result: 54 µM (inactive)

====

# Test system: HOP-62
# experiment-notes: NCI tumour cell line growth inhibition, 48 h
The source made the active and inactive calls. No stated cut-off is given here; in the data, active = GI50 up to about 1.1 µM and inactive = higher.
Outcomes you can answer with include only these: YES for active, NO for inactive

Observe how each entry below is paired with its result.
{"columns": ["compound", "label-class"],
 "data": [
  ["CCCCCCCCCCCCCCCC/C(C(=O)OC)=C(/O)C(=O)OCC", "NO"],
  ["CN(C)c1ccc(/C=N/c2ccc(Oc3ccc(Cl)cc3)c(Cl)c2)cc1", "NO"]
]}

Request: I'd appreciate the recorded outcome for "COc1ccc(NC(=S)NNC(=O)c2cc(-c3ccccc3)nc3ccccc23)cc1" from this test.
Result: NO

Request: GET /call?item= CCOC(=O)C1=C(C)N(c2ccc(C)cc2)C2(O)C=CC(O)=C3C(=O)c4ccccc4C(=O)C312 (configuration not stated) returns the recorded outcome of this test.
Result: NO

Request: What call does the record list for "Cc1nc(Nc2nc3ccccc3[nH]2)[nH]c(=O)c1CCO" ?
Result: NO

====

# System: ACHN
# experiment-notes: NCI tumour cell line growth inhibition, 48 h
Calls of active or inactive are those of the source. Cut-off read from the data, not from the text of the source: active = GI50 up to about 1.1 µM and inactive = higher.
Thanks in advance; please answer with one of these: true (active), false (inactive)

Example entries and their recorded answers appear below.
{"columns": ["compound", "label-class"],
 "data": [
  ["COc1c(Cl)ccc(Cl)c1C(=O)NNC(=O)c1c(Cl)c(Cl)c(Cl)c(Cl)c1-c1nc2cc(C(=O)c3ccccc3)ccc2[nH]1", "false"],
  ["S=c1sc2cscc2s1", "false"],
  ["O=C(Nc1ccn(C2CCC(CO)O2)c(=O)n1)c1ccccc1 (stereo not given)", "false"],
  ["CC1(C)C2CC(c3ccncc3)ON2C(C)(C)N1O (stereo not given)", "false"],
  ["OCc1ccn2c1[C@@H](O)CC2", "false"],
  ["COc1ccc(C(=O)N/N=C/c2c(C)n(C)n(-c3ccccc3)c2=O)cc1", "false"],
  ["COc1cc2c(c(O)c1C)C(=O)C(Cl)=CC2=O", "false"],
  ["O=C1c2cccc3cccc(c23)C(=O)N1CCCNCCCNCCCCNCCCNCCCN1C(=O)c2cccc3cccc(c23)C1=O", "false"]
]}

Request: GET /call?item= Cc1c[nH]c2c1C13CC1CN(C(=O)c1cc4cc(NC(=O)c5cc6ccccc6o5)ccc4[nH]1)C3=CC2=O (stereo not given) returns the recorded outcome of this test.
Result: true

Request: Please let me know the test result on file for CCOC(=O)[C@@H]1ON2O[C@@H](OC3CCCC3(c3ccccc3)c3ccccc3)C[C@H]3OC(=O)[C@@H]1C32 (stereo not given in full) .
Result: false
